tested on: Candida tropicalis
readout: MIC (µg/mL)
Please state the figure in µg/mL; there is no need to write the unit.

CN(Cc1ccccc1)C(=O)Cn1sc2ccccc2c1=O [Compound I-1]; 3.2
COc1ccc(Cc2nnc(Cn3sc4ccccc4c3=O)o2)cc1 [Compound I-3]; 6.4
CC(=O)NNC(=O)Cn1sc2ccccc2c1=O [Compound I-7]; 12.5
O=c1c2ccccc2sn1Cc1nnc(Cc2ccccc2)o1 [Compound I-4]; 12.5
COc1ccc(CC(=O)NNC(=O)Cn2sc3ccccc3c2=O)cc1 [Compound I-6]; 12.5
O=C(Cn1sc2ccccc2c1=O)Nc1ccccc1Oc1ccccc1 [Compound I-2]; 3.2

Please examine the following record next.
# value lookup — system Candida tropicalis, readout MIC, item O=C(Cn1sc2ccccc2c1=O)NNC(=O)c1cccc(Cl)c1 [Compound I-5]
6.4

====

Below, each of the compounds is paired with its reported CC50 at 3 days value.
assay: Cytotoxicity by neutral red dye uptake after 3 days of treatment; assay type: cell-based; conditions: human, AVA5

O=C(Cn1sc2ccccc2c1=O)Nc1cccc(Oc2ccccc2)c1; > 100 µM

Any idea what CC50 at 3 days was measured for CC(C(=O)Nc1cccc(Oc2ccccc2)c1)n1sc2ccccc2c1=O (centres unmarked) ?
> 100 µM

====

system: APC103 cells; assay: Cytotoxicity by neutral red dye uptake after 3 days of treatment; assay type: cell-based
readout: CC50

Any idea what CC50 was measured for C[C@@]1(O)[C@H](O)[C@@H](CO)O[C@H]1n1ccc(N)nc1=O [2′CmeC, 2′C-methyl cytidine, reference compound] ?
> 300 µM

====

tested on: AVA5 cells; test: Cytotoxicity by neutral red dye uptake after 3 days of treatment; type: cell-based
readout: CC50

Any idea what CC50 was measured for C[C@@]1(O)[C@H](O)[C@@H](CO)O[C@H]1n1ccc(N)nc1=O [2′CmeC, 2′C-methyl cytidine, reference compound] ?
> 300 µM

====

tested on: Candida albicans (CAF-2); experiment: Anti-fungal/anti-yeast activity: MIC50 (broth microdilution) and MFC; format: cell-based
*1 amine or outer side, *2 acyl side, *3 side chain or, on linkers, in order; H or OH if unused. Where a SMILES comes first, the peptide text is derived from it. Bridges are numbered along the chain shown (N, C = ends). [ ]: non-standard residue; d: D form. The star is where a group is joined. hTyr(3S-OH,4S-OH,3'-OSO3H) = N[C@H](C(=O)O)[C@H](O)[C@@H](O)c1ccc(O)c(OS(=O)(=O)O)c1; Orn(4R-OH,5R-OH) = O=C([C@H](C[C@@H](O)[C@@H](O)N[*:3])N[*:1])[*:2]; Pro(3S-OH,4S-Me) = C[C@H]1CN[C@H](C(=O)O)[C@H]1O; X1 = CCCCCOc1ccc(-c2cc(-c3ccc(C(=O)*)cc3)no2)cc1; Gln(3R-OH) = NC(=O)C[C@@H](O)[C@H](N)C(=O)O; Hyp = O=C(O)[C@@H]1C[C@@H](O)CN1
Below, each of the compounds is paired with its reported Ratio MFC/MIC value.
Number only, no unit.

O=C(Cn1sc2ccccc2c1=O)NNC(=O)c1cccc(Cl)c1 [Compound I-5]; 2
COc1ccc(CC(=O)NNC(=O)Cn2sc3ccccc3c2=O)cc1 [Compound I-6]; 1
COc1ccc(Cc2nnc(Cn3sc4ccccc4c3=O)o2)cc1 [Compound I-3]; 1
OC(Cn1cncn1)(Cn1cncn1)c1ccc(F)cc1F [Fluconazole, reference compound]; 20
O=c1c2ccccc2sn1Cc1nnc(Cc2ccccc2)o1 [Compound I-4]; 1

Please examine the following record next.
Any idea what Ratio MFC/MIC was measured for CCCCCOc1ccc(-c2cc(-c3ccc(C(=O)N[C@H]4C[C@@H](O)[C@@H](O)NC(=O)[C@@H]5[C@@H](O)[C@@H](C)CN5C(=O)[C@H]([C@H](O)CC(N)=O)NC(=O)[C@H]([C@H](O)[C@@H](O)c5ccc(O)c(OS(=O)(=O)O)c5)NC(=O)[C@@H]5C[C@@H](O)CN5C(=O)[C@H]([C@@H](C)O)NC4=O)cc3)no2)cc1 [Micafungin, micafungin, reference compound] (X1-[Orn(4R-OH,5R-OH)]T[Hyp][hTyr(3S-OH,4S-OH,3'-OSO3H)][Gln(3R-OH)][Pro(3S-OH,4S-Me)]; lactam 1-C) ?
1

====

test system: Saccharomyces cerevisiae (YPH501); test: Anti-fungal/anti-yeast activity: MIC50 (broth microdilution) and MFC; assay type: cell-based; details: Saccharomyces cerevisiae
readout: MFC (µg/mL)
Please state the figure in µg/mL; there is no need to write the unit.

CC(=O)NNC(=O)Cn1sc2ccccc2c1=O; 12.5

Any idea what MFC was measured for `O=C(Cn1sc2ccccc2c1=O)NNC(=O)c1cccc(Cl)c1` ?
3

Any idea what MFC was measured for `O=C(Cn1sc2ccccc2c1=O)Nc1ccccc1Oc1ccccc1` ?
3.2

Any idea what MFC was measured for `COc1ccc(CC(=O)NNC(=O)Cn2sc3ccccc3c2=O)cc1` ?
12.5

Any idea what MFC was measured for `O=c1c2ccccc2sn1Cc1nnc(Cc2ccccc2)o1` ?
6

Any idea what MFC was measured for `COc1ccc(Cc2nnc(Cn3sc4ccccc4c3=O)o2)cc1` ?
12.5

Any idea what MFC was measured for `CN(Cc1ccccc1)C(=O)Cn1sc2ccccc2c1=O` ?
3.2

====

Below, each of the compounds is paired with its reported Percentage Viability value.
Test system: Huh7 cells
Assay: Neutral red uptake assay (cytotoxicity)
Type: cell-based, human
Conditions: 100 μg/mL (approx 30X MIC)
From the text: The neutral red uptake assay is a cytotoxicity test that is based on the ability of viable cells to incorporate and bind the supra-vital dye neutral red in the lysosomes. […] The dye is then extracted from the viable cells using an acidified ethanol solution, and the absorbance of the solubilized dye is read. […] The cells were subsequently washed, the dye was extracted in each well, and the absorbance was read using a spectrophotometer (FIG. 3 and Table 11).
Please state the figure in %; there is no need to write the unit.

Use the examples below as a reference point.
O=c1c2ccccc2sn1Cc1nnc(Cc2ccccc2)o1; 75
O=C(Cn1sc2ccccc2c1=O)NNC(=O)c1cccc(Cl)c1; 92
O=C(Cn1sc2ccccc2c1=O)Nc1ccccc1Oc1ccccc1; 75

Any idea what Percentage Viability was measured for `COc1ccc(CC(=O)NNC(=O)Cn2sc3ccccc3c2=O)cc1` ?
67

Any idea what Percentage Viability was measured for `CN(Cc1ccccc1)C(=O)Cn1sc2ccccc2c1=O` ?
83

====

test system: Saccharomyces cerevisiae (YPH501); assay: Anti-fungal/anti-yeast activity: MIC50 (broth microdilution) and MFC; format: cell-based; conditions: Saccharomyces cerevisiae
*1 amine or outer side, *2 acyl side, *3 side chain or, on linkers, in order; H or OH if unused. Where a SMILES comes first, the peptide text is derived from it. Bridges are numbered along the chain shown (N, C = ends). [ ]: non-standard residue; d: D form. The star is where a group is joined. hTyr(3S-OH,4S-OH,3'-OSO3H) = N[C@H](C(=O)O)[C@H](O)[C@@H](O)c1ccc(O)c(OS(=O)(=O)O)c1; Orn(4R-OH,5R-OH) = O=C([C@H](C[C@@H](O)[C@@H](O)N[*:3])N[*:1])[*:2]; Pro(3S-OH,4S-Me) = C[C@H]1CN[C@H](C(=O)O)[C@H]1O; X1 = CCCCCOc1ccc(-c2cc(-c3ccc(C(=O)*)cc3)no2)cc1; Gln(3R-OH) = NC(=O)C[C@@H](O)[C@H](N)C(=O)O; Hyp = O=C(O)[C@@H]1C[C@@H](O)CN1
readout: MFC (µg/mL)
Please state the figure in µg/mL; there is no need to write the unit.

Any idea what MFC was measured for CCCCCOc1ccc(-c2cc(-c3ccc(C(=O)N[C@H]4C[C@@H](O)[C@@H](O)NC(=O)[C@@H]5[C@@H](O)[C@@H](C)CN5C(=O)[C@H]([C@H](O)CC(N)=O)NC(=O)[C@H]([C@H](O)[C@@H](O)c5ccc(O)c(OS(=O)(=O)O)c5)NC(=O)[C@@H]5C[C@@H](O)CN5C(=O)[C@H]([C@@H](C)O)NC4=O)cc3)no2)cc1 [Micafungin, micafungin, reference compound] (X1-[Orn(4R-OH,5R-OH)]T[Hyp][hTyr(3S-OH,4S-OH,3'-OSO3H)][Gln(3R-OH)][Pro(3S-OH,4S-Me)]; lactam 1-C) ?
0.064

====

tested on: HCV replication; assay: Effect of combination treatments on HCV replication (CalcuSyn analysis); type: cell-based; conditions: Hepatitis C virus, combination with IFN, molar ratio 1:1; read-out: Compound I-9 EC50
readout: EC50
Report as: number unit

Any idea what EC50 was measured for CC(C(=O)Nc1cccc(Oc2ccccc2)c1)n1sc2ccccc2c1=O (stereo not shown) ?
300 nM

====

test: Cytotoxicity by neutral red dye uptake after 3 days of treatment; format: cell-based; conditions: human, APC103
Below, each of the molecules is paired with its reported CC50 at 3 days value.

CC(C(=O)Nc1cccc(Oc2ccccc2)c1)n1sc2ccccc2c1=O (centres unmarked); > 100 µM

Please examine the following record next.
Any idea what CC50 at 3 days was measured for `O=C(Cn1sc2ccccc2c1=O)Nc1cccc(Oc2ccccc2)c1` ?
> 100 µM
